This collection of values is drawn from the supplement of paper PMC13380429.

Tested on: HepG2
Assay: drug sensitivity score (DSS) for viability; higher = more toxic; extreme values may be limits of the assay
Details: 72 h
Outcome: MET for drug sensitivity score of at least 1; NOT MET for anything lower.

| molecule | tested_target | assigned_class |
| --- | --- | --- |
| C[C@@H]1C[C@H]2[C@@H]3CCC4=CC(=O)C=C[C@]4(C)[C@@]3(F)[C@@H](O)C[C@]2(C)[C@H]1C(=O)CO | HepG2 | NOT MET |
| NC(=O)OCCCc1ccccc1 [phenprobamate] | HepG2 | NOT MET |
| NC(=O)CCCCn1ccc(/N=C(\N)NCC(F)(F)F)n1 | HepG2 | NOT MET |
| C=CC(=O)Nc1cc(Nc2nccc(-c3c[nH]c4ccccc34)n2)c(OC)cc1N(C)CCN(C)C | HepG2 | MET |
| COc1ccc(-c2nc(N3CCOCC3)c3sc(CN(C)c4ncc(C(=O)NO)cn4)cc3n2)cn1 | HepG2 | MET |
| C[n+]1cccc(C(=O)[O-])c1 | HepG2 | NOT MET |
| CS(=O)(=O)CCNCc1nc(-c2ccc3ncnc(Nc4ccc(OCc5cccc(F)c5)c(Cl)c4)c3c2)cs1 | HepG2 | NOT MET |
| C/C=C(/C(=C/C)c1ccc(O)cc1)c1ccc(O)cc1 | HepG2 | NOT MET |
| CCn1c2ccccc2c2cc(CNCc3ccccc3OC)ccc21 | HepG2 | MET |
| CN1C(=O)N(c2cc(Cl)cc(Cl)c2)C(=O)[C@]12CN(c1ccc(C(=O)O)cn1)C[C@H]2c1ccc(C#N)cc1 | HepG2 | NOT MET |
| CC(C)N(CCc1c[nH]c2ccccc12)C(C)C | HepG2 | NOT MET |
| O=C1CCC[C@@H]2[C@H]3CCC[N+]4([O-])CCC[C@@H](CN12)[C@@H]34 (stereo not given in full) | HepG2 | NOT MET |
| Cc1cc(Nc2cc(N3CCN(C)CC3)nc(Sc3ccc(NC(=O)C4CC4)cc3)n2)n[nH]1 | HepG2 | MET |
| O=C(O)CN(CCN(CC(=O)O)CC(=O)O)CC(=O)O | HepG2 | NOT MET |
| CCC(C)n1ncn(-c2ccc(N3CCN(c4ccc(OCC5COC(Cn6cncn6)(c6ccc(Cl)cc6Cl)O5)cc4)CC3)cc2)c1=O (stereo not given) | HepG2 | NOT MET |
| CC(C)(C)C(=O)OCOC(=O)[C@@H]1N2C(=O)[C@@H](/N=C/N3CCCCCC3)[C@H]2SC1(C)C | HepG2 | NOT MET |
| CC[N+](C)(CC)CCOC(=O)C1c2ccccc2Oc2ccccc21 | HepG2 | NOT MET |
| O=c1[nH]c(=O)n([C@H]2C[C@H](O)[C@@H](CO)O2)cc1F | HepG2 | MET |
| NCC(=O)CCC(=O)O | HepG2 | NOT MET |
| C[N+]1([O-])[C@@H]2CC[C@H]1C[C@@H](OC(=O)C(CO)c1ccccc1)C2 (stereo not given in full) [atropine-oxide] | HepG2 | NOT MET |
| O=C(/C=C/c1ccc(CN(CCO)CCc2c[nH]c3ccccc23)cc1)NO | HepG2 | MET |
| CCOC(=O)C1=C(C)NC(=S)NC1c1cccc(O)c1 (stereo not given) | HepG2 | NOT MET |
| Cc1cccc(C)c1NC(=O)CC12CCCN1CCC2 [pilsicainide] | HepG2 | NOT MET |
| CC(C)(C)c1ccc(-c2nc3ccccc3[nH]2)cc1 | HepG2 | MET |
| CCNC(=O)Nc1ccc(-c2nc3c(c(N4CCOC[C@@H]4C)n2)CCN(C2COC2)C3)cc1 | HepG2 | MET |
| O=C(O)CCc1ccc(NCc2cccc3c2CCCN3CCOc2ccccc2)cc1F | HepG2 | NOT MET |
| CCOc1c2c(c(OCC)c3ccccc13)C(=O)N(c1ccc(CC(=O)NS(=O)(=O)c3ccccc3)cc1)C2 | HepG2 | NOT MET |
| CC1(C)CC(=O)c2c(C(F)(F)F)nn(-c3ccc(C(N)=O)c(N[C@H]4CC[C@H](OC(=O)CN)CC4)c3)c2C1 | HepG2 | MET |
| O=C1NC(=O)c2cc(Nc3ccccc3)c(Nc3ccccc3)cc21 | HepG2 | MET |
| CCCCCCC(=O)OC1CC(C)(C)NC(C)(C)C1 | HepG2 | NOT MET |
| COC1CCN(C(=O)c2cc(Cc3n[nH]c(=O)c4ccccc34)ccc2F)CC1 | HepG2 | MET |
| O=C1C(=C(O)/C=C/c2ccc(O)cc2)C(=O)[C@@](O)([C@@H]2O[C@H](CO)[C@@H](O)[C@H](O)[C@H]2O)C(=O)[C@H]1[C@@H]1O[C@H](CO)[C@@H](O)[C@H](O)[C@H]1O | HepG2 | NOT MET |
| C[C@@H]1CN(CC(=O)Nc2ccc3c(c2)Cc2cccc(-c4cc(=O)cc(N5CCOCC5)o4)c2S3)C[C@H](C)O1 | HepG2 | MET |
| O=C1c2c(O)cccc2Cc2cccc(O)c21 | HepG2 | NOT MET |

---

Entries and their drug sensitivity score
Tested on: Calu-3
Assay: drug sensitivity score (DSS) for viability; higher = more toxic; extreme values may be limits of the assay
Details: 72 h
measure: drug sensitivity score

| molecule | tested_target | test_result |
| --- | --- | --- |
| C[n+]1cccc(C(=O)[O-])c1 [trigonelline] | Calu-3 | 0 |
| O[C@@H](CN1CCC(Cc2ccc(F)cc2)CC1)c1ccc(Cl)cc1 (racemic) [eliprodil] | Calu-3 | 0 |
| O=C1C(=C(O)/C=C/c2ccc(O)cc2)C(=O)[C@@](O)([C@@H]2O[C@H](CO)[C@@H](O)[C@H](O)[C@H]2O)C(=O)[C@H]1[C@@H]1O[C@H](CO)[C@@H](O)[C@H](O)[C@H]1O | Calu-3 | 0 |
| O=C(O)COc1cccc(CN(Cc2ccc(-n3cccn3)cc2)S(=O)(=O)c2cccnc2)c1 [taprenepag] | Calu-3 | 0 |
| O=C1CN(/N=C/c2ccc(-c3ccc([N+](=O)[O-])cc3)o2)C(=O)N1 [dantrolene] | Calu-3 | 0 |
| O=C(O)CC(S)C(=O)O (stereo not drawn) [mercaptosuccinic-acid] | Calu-3 | 0 |
| CNC(=S)C1(c2ccccn2)CCCS1 (stereo not drawn) [picartamide] | Calu-3 | 0 |
| CC(C)(Sc1ccc(CCN(CCCCC2CCCCC2)C(=O)NC2CCCCC2)cc1)C(=O)O [GW-7647] | Calu-3 | 0 |
| CSc1ccccc1Nc1nc(N2CCNCC2)nc2c(NCC3CC3)ncnc12 [KHK-IN-1] | Calu-3 | 6.4 |
| Cn1cc(C2=C(c3cn(C4CCN(Cc5ccccn5)CC4)c4ccccc34)C(=O)NC2=O)c2ccccc21 [enzastaurin] | Calu-3 | 0 |
| CN(C)CCCN1c2ccccc2Sc2ccccc21 [promazine] | Calu-3 | 0 |
| CC1(N2CCC(n3c([C@@H]4CCCNC4)nc4ccccc43)CC2)CCCCCCC1 [MCOPPB] | Calu-3 | 5.3 |
| CCCCc1nc(C)c(CC(=S)N(C)C)c(=O)n1Cc1ccc(-c2ccccc2-c2nnn[nH]2)cc1 [fimasartan] | Calu-3 | 0 |
| O=S(=O)(O)c1cc(I)c(O)c2ncccc12 [chiniofon] | Calu-3 | 0 |
| O=C(/C=C/c1ccc(CN(CCO)CCc2c[nH]c3ccccc23)cc1)NO [dacinostat] | Calu-3 | 21.5 |
| CCc1cncnc1N1CCN(Cc2nc3cc(C(F)(F)F)ccc3[nH]2)CC1 | Calu-3 | 1.1 |
| N[C@@H](C(=O)N[C@@H]1C(=O)N2C(C(=O)O)=C(Cl)CS[C@H]12)c1ccccc1 [cefaclor] | Calu-3 | 0 |
| CCC[S+]([O-])c1ccc2[nH]c(NC(=O)OC)nc2c1 (stereo not drawn) [albendazole-oxide] | Calu-3 | 0 |

---

Entries and their cell viability
Test system: Vero E6
Experiment: cell viability relative to DMSO; higher = less toxic
Conditions: 72 h; 10 nM
measure: cell viability (%)

| compound | tested_target | test_result |
| --- | --- | --- |
| O[C@@H](CN1CCNCC1)Cn1c2ccc(Br)cc2c2cc(Br)ccc21 | Vero E6 | 96.5 |
| C[C@H](NCc1ccc(OCc2ccccc2F)cc1)C(N)=O [priralfinamide] | Vero E6 | 95.3 |
| C[C@H](NC(=O)c1sccc1OCc1ccc(Cl)cc1)c1ccccc1 | Vero E6 | 107 |
| CCCc1cc(C(N)=S)ccn1 [protionamide] | Vero E6 | 98.6 |
| COc1ccc(CC2NCCc3c2[nH]c2ccc(C)cc32)c(Cl)c1OC (centres undefined) | Vero E6 | 93.2 |
| C=CC(=O)Nc1cc(Nc2nccc(-c3c[nH]c4ccccc34)n2)c(OC)cc1N(C)CCN(C)C | Vero E6 | 93.8 |
| CC(C)[C@@H](C)/C=C/[C@@H](C)[C@H]1CC[C@H]2C3=CC=C4C[C@@H](O)CC[C@]4(C)[C@H]3CC[C@]12C | Vero E6 | 103 |
| Oc1c(CN2CCCC2)cc(COCc2ccccc2)c2cccnc12 | Vero E6 | 95.3 |
| O=C(Nc1ccccc1)Nc1ccc(-c2ccc(C(=O)[C@@H]3CCC[C@@H]3C(=O)O)cc2)cc1 | Vero E6 | 98.7 |
